# TEST_SUMMARY: Volume of distribution at steady state in Sprague-Dawley rat at 0.5 mg/kg, iv
# Assay type: ADME, organism-based
# Parameters: dose 0.5 mg/kg, route intravenous
# TEST_CONDITIONS: in vivo, read-out: Vdss
ASSAY_ENDPOINT: Vd (L/kg)
Numeric answer only, unit L/kg assumed.

Return reported Vd. Input compound: `CNc1nccc(-c2cccnc2Oc2c(C)cc(Nc3nc4ccccc4[nH]3)c3ccccc23)n1`
5.9

---

# TGT: UniProtKB Q02763
# TEST_SUMMARY: Inhibition of Tie2 autophosphorylation in human Ea.hy926 cells
# Assay type: cell-based
ASSAY_ENDPOINT: IC50 (nM)
Kindly answer with a numeric value in nM, unit omitted.

CNc1nccc(-c2cccnc2Oc2ccc(Nc3nc4ccccc4[nH]3)c3ccccc23)n1 20

Kindly consider the entry below.
Give the reported IC50 for this compound. `CNc1nccc(-c2cccnc2Oc2ccc(Nc3nc4ccccc4[nH]3)cc2C)n1`
250

---

# TGT: UniProt Q02763
# TEST_SUMMARY: Inhibition of Tie2
ASSAY_ENDPOINT: IC50 (nM)
The response must be a number in nM with no trailing unit.

CNc1nccc(-c2cccnc2Oc2ccc(Nc3nc4ccccc4[nH]3)cc2C)n1 23
CNc1nccc(-c2cccnc2Oc2ccc(NC(=O)Nc3ccccc3)c3ccccc23)n1 5
CNc1nccc(-c2cccnc2Oc2ccc(Nc3nc4ccccc4s3)c3ccccc23)n1 44

Name the recorded IC50 of the item `CNc1nccc(-c2cccnc2Oc2ccc(NC(=O)Nc3ccccc3)cc2C)n1` in your answer.
460

Look up and report measured IC50 for this entry: `CNc1nccc(-c2cccnc2Oc2ccc(Nc3nc4ccccc4n3C)c3ccccc23)n1`
240

---

# TGT: Angiopoietin-1 receptor (Homo sapiens)
# Sequence (Q02763 whole entry): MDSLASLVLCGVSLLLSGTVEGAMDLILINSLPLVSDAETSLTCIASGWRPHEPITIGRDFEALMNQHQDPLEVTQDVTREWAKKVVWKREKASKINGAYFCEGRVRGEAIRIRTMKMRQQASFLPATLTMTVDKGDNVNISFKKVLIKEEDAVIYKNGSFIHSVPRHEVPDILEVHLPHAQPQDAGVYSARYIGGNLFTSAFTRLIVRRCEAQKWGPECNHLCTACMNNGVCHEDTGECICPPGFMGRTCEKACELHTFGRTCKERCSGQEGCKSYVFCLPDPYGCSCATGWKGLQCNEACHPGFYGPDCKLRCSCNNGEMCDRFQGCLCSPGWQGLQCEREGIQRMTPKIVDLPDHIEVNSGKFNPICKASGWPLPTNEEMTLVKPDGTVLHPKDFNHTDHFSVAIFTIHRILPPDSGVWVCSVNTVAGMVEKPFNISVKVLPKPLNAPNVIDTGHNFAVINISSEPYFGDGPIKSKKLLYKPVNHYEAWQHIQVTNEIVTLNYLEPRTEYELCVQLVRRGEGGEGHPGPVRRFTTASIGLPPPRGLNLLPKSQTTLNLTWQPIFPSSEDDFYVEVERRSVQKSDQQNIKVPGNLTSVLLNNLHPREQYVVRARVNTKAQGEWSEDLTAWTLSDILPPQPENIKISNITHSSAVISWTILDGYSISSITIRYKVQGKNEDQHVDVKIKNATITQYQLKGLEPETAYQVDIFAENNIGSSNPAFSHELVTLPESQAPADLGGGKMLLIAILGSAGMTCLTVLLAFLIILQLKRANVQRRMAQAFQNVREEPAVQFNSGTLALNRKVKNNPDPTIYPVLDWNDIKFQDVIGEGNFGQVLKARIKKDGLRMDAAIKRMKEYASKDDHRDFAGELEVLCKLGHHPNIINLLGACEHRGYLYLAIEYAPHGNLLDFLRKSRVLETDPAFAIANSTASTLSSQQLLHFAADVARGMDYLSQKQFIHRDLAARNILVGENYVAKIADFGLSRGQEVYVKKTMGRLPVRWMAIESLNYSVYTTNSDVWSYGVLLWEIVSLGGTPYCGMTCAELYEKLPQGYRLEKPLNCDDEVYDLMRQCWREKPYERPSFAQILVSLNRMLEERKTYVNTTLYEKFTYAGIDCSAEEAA
# TEST_SUMMARY: Inhibition of Tie2
API: label(entry) gives 1 if the entry's IC50 is strictly smaller than 200 nM; on equality or larger values it gives -1.

These recorded examples may help you get a feel for the data.
CNc1nccc(-c2cccnc2Oc2ccc(Nc3nc4ccccc4[nH]3)cc2)n1 -1
CNc1nccc(-c2cccnc2Oc2ccc(Nc3nc4ccccc4[nH]3)c(C)c2C)n1 -1
CNc1nccc(-c2cccnc2Oc2ccc(Nc3nc4ccccc4[nH]3)c(C)c2)n1 -1
CNc1nccc(-c2cccnc2Oc2ccc(Nc3nc4c(C)cccc4[nH]3)c3ccccc23)n1 1
CNc1nccc(-c2cccnc2Oc2ccc(Nc3nc4ccccc4[nH]3)c3ccccc23)n1 1
CNc1nccc(-c2cccnc2Oc2ccc(Nc3nc4cc(C(F)(F)F)ccc4[nH]3)c3ccccc23)n1 1
CNc1nccc(-c2cccnc2Oc2ccc(Nc3nc4ccccc4o3)c3ccccc23)n1 1

For this molecule, is IC50 lower than 200 nM? `CNc1nccc(-c2cccnc2Oc2ccc(Nc3nc4ccc(C(F)(F)F)cc4[nH]3)cc2C)n1`
-1

---

# TGT: Aurora kinase B (Homo sapiens)
# Sequence (Q96GD4 whole entry): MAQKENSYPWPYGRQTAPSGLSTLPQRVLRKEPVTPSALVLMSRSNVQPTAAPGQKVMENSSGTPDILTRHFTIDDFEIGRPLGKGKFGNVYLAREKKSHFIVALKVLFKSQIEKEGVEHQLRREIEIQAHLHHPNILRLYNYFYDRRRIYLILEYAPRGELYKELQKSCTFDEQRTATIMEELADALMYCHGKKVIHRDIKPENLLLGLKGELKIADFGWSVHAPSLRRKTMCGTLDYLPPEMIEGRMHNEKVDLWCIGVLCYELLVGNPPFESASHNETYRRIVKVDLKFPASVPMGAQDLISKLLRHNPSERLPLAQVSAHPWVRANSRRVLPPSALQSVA
ASSAY_ENDPOINT: pIC50
API: returns pIC50 as number; meaning -log10 of concentration in mol/L.

Write down the reported pIC50 (system: Aurora kinase B (Homo sapiens)) of `CNc1nccc(-c2cccnc2Oc2ccc(Nc3nc4ccccc4[nH]3)c3ccccc23)n1`
8.00

---

Consider the following pIC50 values measured on Vascular endothelial growth factor receptor 2 (Homo sapiens).
Sequence (P35968 whole entry): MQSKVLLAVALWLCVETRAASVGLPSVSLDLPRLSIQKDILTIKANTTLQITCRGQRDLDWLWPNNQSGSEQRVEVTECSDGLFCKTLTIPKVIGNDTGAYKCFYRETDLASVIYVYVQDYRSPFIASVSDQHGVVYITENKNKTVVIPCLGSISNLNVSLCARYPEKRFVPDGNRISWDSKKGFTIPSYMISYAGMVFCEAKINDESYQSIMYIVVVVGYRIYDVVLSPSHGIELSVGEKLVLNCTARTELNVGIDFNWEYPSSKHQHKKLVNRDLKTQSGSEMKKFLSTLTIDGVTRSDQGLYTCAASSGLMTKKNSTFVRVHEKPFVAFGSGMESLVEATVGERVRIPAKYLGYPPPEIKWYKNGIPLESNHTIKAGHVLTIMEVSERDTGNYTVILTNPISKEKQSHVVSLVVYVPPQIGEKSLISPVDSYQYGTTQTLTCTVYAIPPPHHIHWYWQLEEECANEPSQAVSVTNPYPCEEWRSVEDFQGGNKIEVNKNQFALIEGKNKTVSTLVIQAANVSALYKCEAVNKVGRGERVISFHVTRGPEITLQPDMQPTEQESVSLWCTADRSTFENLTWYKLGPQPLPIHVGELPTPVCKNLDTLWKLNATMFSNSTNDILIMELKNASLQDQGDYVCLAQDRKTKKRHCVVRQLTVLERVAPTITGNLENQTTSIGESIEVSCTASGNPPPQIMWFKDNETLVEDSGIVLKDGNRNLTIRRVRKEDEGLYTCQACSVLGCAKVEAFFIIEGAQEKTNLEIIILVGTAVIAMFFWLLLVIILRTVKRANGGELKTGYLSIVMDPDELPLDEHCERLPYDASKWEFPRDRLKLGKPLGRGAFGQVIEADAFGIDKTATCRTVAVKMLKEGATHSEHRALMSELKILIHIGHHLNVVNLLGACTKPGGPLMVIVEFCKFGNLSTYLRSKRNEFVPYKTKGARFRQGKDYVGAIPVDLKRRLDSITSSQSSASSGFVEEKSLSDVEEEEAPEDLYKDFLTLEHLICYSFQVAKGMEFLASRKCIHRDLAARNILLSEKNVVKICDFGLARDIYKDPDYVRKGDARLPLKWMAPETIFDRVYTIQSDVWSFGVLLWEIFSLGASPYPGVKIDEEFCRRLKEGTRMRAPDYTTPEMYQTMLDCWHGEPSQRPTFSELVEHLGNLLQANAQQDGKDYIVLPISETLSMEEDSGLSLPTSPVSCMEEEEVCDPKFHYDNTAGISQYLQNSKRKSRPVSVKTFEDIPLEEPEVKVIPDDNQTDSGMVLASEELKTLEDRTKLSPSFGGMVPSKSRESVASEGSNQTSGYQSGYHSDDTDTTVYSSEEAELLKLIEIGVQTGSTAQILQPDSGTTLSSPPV
The scale used: pIC50 is minus the common logarithm of the concentration in molar units.

CNc1nccc(-c2cccnc2Oc2ccc(Nc3nc4ccccc4n3C)c3ccccc23)n1 6.60
CNc1nccc(-c2cccnc2Oc2ccc(Nc3nc4cc(C(F)(F)F)ccc4[nH]3)c3ccccc23)n1 7.16
CNc1nccc(-c2cccnc2Oc2ccc(NC(=O)Nc3ccccc3)c3ccccc23)n1 7.40

Turning now to a further record.
Note down pIC50 recorded for `CNc1nccc(-c2cccnc2Oc2ccc(Nc3nc4c(C)cccc4[nH]3)c3ccccc23)n1`
5.80

The values you see were collected from ChEMBL document CHEMBL1154530.
